Molecular target: T1, PUF4 RNA-binding domain (Saccharomyces cerevisiae, UniProt P25339 537-888)
T1 sequence: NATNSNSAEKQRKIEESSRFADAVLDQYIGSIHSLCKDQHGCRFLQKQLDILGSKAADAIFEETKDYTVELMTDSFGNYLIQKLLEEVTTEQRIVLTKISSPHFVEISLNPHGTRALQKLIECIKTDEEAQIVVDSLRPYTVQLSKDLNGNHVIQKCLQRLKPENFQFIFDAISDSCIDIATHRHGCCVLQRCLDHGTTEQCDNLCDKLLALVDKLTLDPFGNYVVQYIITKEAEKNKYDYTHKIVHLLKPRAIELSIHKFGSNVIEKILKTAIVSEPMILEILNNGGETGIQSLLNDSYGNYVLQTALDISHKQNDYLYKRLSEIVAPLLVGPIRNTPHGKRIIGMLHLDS
Assay: Mg; RNA-MaP; 20 mM Na-HEPES pH 7.4, 30 mM KOAc, 0.75 mM MgCl2, 0.1% Tween-20, 5% glycerol, 0.1 mg/mL BSA, 2 mM DTT; 25 C; 0.0125-409.6 nM protein
Settings: tags: N-His6-TEV cleaved; C-SNAP kept, Cy3B-labelled; label: tethered on chip by stalled RNA polymerase
Quick reference: Kd of the listed items.
ENDPOINT NAME: Kd (nM)

[
  {
    "BINDER": "UCUCUUUUACACUAUAGCUCUCUU (ssRNA) [Id_ii_S1_P3E.4_K3.3_C3.2_[C-2T]_H3.3_A3.1_F3.1_T3.2_[T9G]_[A10C]]",
    "ENDPOINT NAME": "Kd",
    "VALUE QUALIFIER": ">",
    "MEASURED NUMBER": 2300
  },
  {
    "BINDER": "ACAAACCCUAUAUUAUUACUACAAAC (ssRNA) [Id_ii_S3_P5E.3_K5.2_C5.2_[T-1C]_H5.2_A5.1_F5.1_T5.2_[T11C]_[A12T]]",
    "ENDPOINT NAME": "Kd",
    "VALUE QUALIFIER": "=",
    "MEASURED NUMBER": 400
  },
  {
    "BINDER": "Ib_S2_P5E.1_K5.1_C5.1_H5.1_[T3C]_A5.1_F5.1_[T9A]_T5.1 (ssRNA) RNA: UUUGAUUAAUAUGAUAUCGUUCUUUCUUGCAUUAUAAUUCUUUCUCGAUAUCAUAUUAAUCUUU",
    "ENDPOINT NAME": "Kd",
    "VALUE QUALIFIER": "=",
    "MEASURED NUMBER": 608
  },
  {
    "BINDER": "Ic_S4_P5E.1_K5.1_C5.1_H5.1_A5.1_[T5C]_[T6G]_[A7G]_F5.1_[T9A]_T5.1 (ssRNA) RNA: UUUGACAACUGAUCGUUCUUUCUUGUACGGUAAUUCUUUCUCGAUCAGUUGUCUUU",
    "ENDPOINT NAME": "Kd",
    "VALUE QUALIFIER": "=",
    "MEASURED NUMBER": 38.4
  },
  {
    "BINDER": "Id_i_S4_P3E.6_K3.2_C3.3_[T-3C]_[C-2T]_[T-1G]_H3.2_A3.1_F3.1_T3.2 (ssRNA) RNA: UUUGACAACUGAUCGUUCUUUCUCUGUAUAUAUAUAUUCUUUCUCGAUCAGUUGUCUUU",
    "ENDPOINT NAME": "Kd",
    "VALUE QUALIFIER": "=",
    "MEASURED NUMBER": 1.92
  },
  {
    "BINDER": "Ic_S4_P4E.1_K4.1_C4.1_H4.1_A4.1_[T5C]_[A6C]_[T7C]_F4.1_[A9C]_T4.1 (ssRNA) RNA: UUUGACAACUGAUCGUUCUUUCUUGUACCCUCUUCUUUCUCGAUCAGUUGUCUUU",
    "ENDPOINT NAME": "Kd",
    "VALUE QUALIFIER": "=",
    "MEASURED NUMBER": 31.2
  },
  {
    "BINDER": "UCUCUUUGUAAGCACUCUCUU (ssRNA) [Ic_S1_P4E.1_K4.1_C4.1_H4.1_A4.1_[T5A]_[A6G]_[T7C]_F4.1_[T8A]_[A9C]_T4.1]",
    "ENDPOINT NAME": "Kd",
    "VALUE QUALIFIER": "=",
    "MEASURED NUMBER": 1880
  },
  {
    "BINDER": "Id_ii_S2_P5E.2_K5.1_C5.2_[C-2T]_H5.1_A5.1_F5.1_T5.2_[A12T] (ssRNA) RNA: UUUGAUUAAUAUGAUAUCGUUCUUUCUUUUGUAUUAUUAUUUUCUUUCUCGAUAUCAUAUUAAUCUUU",
    "ENDPOINT NAME": "Kd",
    "VALUE QUALIFIER": "=",
    "MEASURED NUMBER": 1.44
  }
]
